# subject.of.test: UniProt Q13370
# Type: biochemical
# reported.conditions: read-out: % PDE3 inhibition at 50 μM, cGMP, substrate cGMP; 50 μM
Where inhibition at 50 µM equals or exceeds 80%, the correct label is Met; where it does not, the label is Not met.

Some solved entries appear below for comparison.
{"compound": "COc1ccccc1-c1cc(-c2cccc(Br)c2)nc(N)c1C#N", "subject.of.test": "UniProt Q13370", "qualitative.label": "Met"}
{"compound": "N#Cc1c(-c2ccccc2Cl)cc(-c2ccccc2Br)[nH]c1=O", "subject.of.test": "UniProt Q13370", "qualitative.label": "Not met"}
{"compound": "CCOc1ccccc1-c1cc(-c2cccc(Br)c2)nc(N)c1C#N", "subject.of.test": "UniProt Q13370", "qualitative.label": "Not met"}
{"compound": "CCOc1ccccc1-c1cc(-c2cccc(Br)c2)nc2ncnc(N)c12", "subject.of.test": "UniProt Q13370", "qualitative.label": "Met"}
{"compound": "Cc1[nH]c(=O)c(C#N)cc1-c1ccncc1 [Milrinone, reference compound]", "subject.of.test": "UniProt Q13370", "qualitative.label": "Met"}

For the next question, use this compound.
Prompt line: Confirm if inhibition at 50 µM reported for the compound COc1ccccc1-c1cc(-c2ccc(-c3ccc(Br)cc3)cc2)nc(N)c1C#N is 80% or above.
Response line: Met

----------
# subject.of.test: PDE3B (Homo sapiens)
# Sequence (Q13370 whole entry): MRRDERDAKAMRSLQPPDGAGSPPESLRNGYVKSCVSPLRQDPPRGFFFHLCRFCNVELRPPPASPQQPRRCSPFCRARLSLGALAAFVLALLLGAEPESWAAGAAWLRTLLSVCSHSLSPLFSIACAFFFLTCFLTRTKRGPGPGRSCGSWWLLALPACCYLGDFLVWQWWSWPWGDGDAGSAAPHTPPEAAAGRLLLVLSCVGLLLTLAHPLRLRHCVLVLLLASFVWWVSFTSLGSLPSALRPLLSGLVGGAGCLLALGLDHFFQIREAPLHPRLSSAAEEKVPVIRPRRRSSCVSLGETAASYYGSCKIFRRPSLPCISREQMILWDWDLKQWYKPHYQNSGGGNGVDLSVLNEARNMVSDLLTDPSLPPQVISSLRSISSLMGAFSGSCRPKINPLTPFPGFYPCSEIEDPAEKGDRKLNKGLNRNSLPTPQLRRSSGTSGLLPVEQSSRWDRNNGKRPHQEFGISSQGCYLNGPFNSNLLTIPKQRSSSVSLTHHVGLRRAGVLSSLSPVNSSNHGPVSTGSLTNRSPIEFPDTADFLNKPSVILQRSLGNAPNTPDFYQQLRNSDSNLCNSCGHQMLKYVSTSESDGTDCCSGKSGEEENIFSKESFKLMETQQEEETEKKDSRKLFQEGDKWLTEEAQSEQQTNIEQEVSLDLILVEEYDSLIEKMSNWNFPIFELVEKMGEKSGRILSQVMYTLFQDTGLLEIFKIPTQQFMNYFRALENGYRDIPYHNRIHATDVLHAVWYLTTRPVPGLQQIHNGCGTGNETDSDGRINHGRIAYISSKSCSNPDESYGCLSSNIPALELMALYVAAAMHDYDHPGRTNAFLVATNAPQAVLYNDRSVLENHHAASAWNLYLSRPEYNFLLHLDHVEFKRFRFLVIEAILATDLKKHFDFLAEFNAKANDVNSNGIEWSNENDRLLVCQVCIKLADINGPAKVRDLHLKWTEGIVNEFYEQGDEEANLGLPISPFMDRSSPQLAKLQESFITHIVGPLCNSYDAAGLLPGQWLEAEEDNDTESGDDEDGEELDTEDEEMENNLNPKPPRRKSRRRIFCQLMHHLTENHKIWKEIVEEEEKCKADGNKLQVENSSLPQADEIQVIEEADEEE
# Format: biochemical
# reported.conditions: PDE3 inhibition IC50, cAMP, substrate cAMP
Hi there, I'd appreciate the recorded IC50 for every entry that follows.
Give bare numbers, in µM.

{"molecule": "COc1ccccc1-c1cc(-c2cccc(Br)c2)nc2nc[nH]c(=O)c12", "subject.of.test": "PDE3B (Homo sapiens)", "IC50 (µM)": 24.2}

Hi, could you look up IC50 for each item in my list?
1. COc1ccccc1-c1cc(-c2ccc(-c3ccc(Br)cc3)cc2)nc(N)c1C#N
2. N#Cc1c(-c2ccccc2Cl)cc(-c2ccccc2Br)[nH]c1=O

Response line:
[35.6, 6.2]

----------
# subject.of.test: PDE3B (Homo sapiens)
# Type: biochemical
# reported.conditions: read-out: % PDE3 inhibition at 50 μM, cAMP, substrate cAMP; 50 μM
Hi there, I'd appreciate the recorded inhibition at 50 µM for every entry that follows.
Give bare numbers, in %.

{"molecule": "COc1ccccc1-c1cc(-c2cccc(Br)c2)nc2nc[nH]c(=O)c12", "measurement.label": "inhibition at 50 µM", "value": 62}
{"molecule": "N#Cc1c(-c2ccccc2Cl)cc(-c2ccccc2Br)[nH]c1=O", "measurement.label": "inhibition at 50 µM", "value": 77}
{"molecule": "CCOc1ccccc1-c1cc(-c2cccc(Br)c2)nc2ncnc(N)c12", "measurement.label": "inhibition at 50 µM", "value": 48}
{"molecule": "Cc1[nH]c(=O)c(C#N)cc1-c1ccncc1 [Milrinone, reference compound]", "measurement.label": "inhibition at 50 µM", "value": 77}

Moving on to the next molecule.
Prompt line: With PDE3B (Homo sapiens) as the test system, provide measured inhibition at 50 µM for this molecule: COc1ccccc1-c1cc(-c2ccc(-c3ccc(Br)cc3)cc2)nc(N)c1C#N
Response line: 55

Just for reference, paper PMC5006629 is where these values come from.
